tested on: wild type NIH3T3 fibroblasts; assay: Cell survival (MTT), NIH wt; format: cell-based; conditions: agent 10 μM alone; 72 hours
Recorded Endpoint: NIH wt % Protection (%)
Give your result in % as a bare value.

Entry CC(O)[C@@H]1NC(=O)[C@H](CCCCN)NC(=O)c2cc([N+](=O)[O-])cc(I)c2OCCC(C(N)=O)NC1=O (some centres unmarked) , NIH wt % Protection reported as −2

Entry CCC(C)[C@@H]1NC(=O)C(CC(=O)O)NC(=O)c2cc([N+](=O)[O-])cc(I)c2OCCC(C(N)=O)NC1=O (some centres unmarked) , NIH wt % Protection reported as 0

Entry NCCCC[C@@H]1NC(=O)[C@H](CCC(=O)O)NC(=O)c2cc([N+](=O)[O-])ccc2OCCC(C(=O)NCC(=O)O)NC1=O (some centres unmarked) , NIH wt % Protection reported as −3

Entry CC(O)[C@@H]1NC(=O)c2cc([N+](=O)[O-])cc(I)c2NCCC(C(N)=O)NC(=O)CNC1=O (some centres unmarked) , NIH wt % Protection reported as 0

Entry NC(=O)C[C@@H]1NC(=O)[C@H](CCC(=O)O)NC(=O)c2cc([N+](=O)[O-])cc(I)c2NCCC(C(N)=O)NC1=O (some centres unmarked) , NIH wt % Protection reported as 2
